Let's look at some IC50 data for Macrophage colony-stimulating factor 1 receptor (Homo sapiens, UniProt P07333) that I collected from the literature.
Give just the number in nM; leave the unit off.

• Cn1cc(-c2cc(Oc3ccc(NC(=O)N4CCC(C)(C)C4=O)nc3)ccn2)cn1 = 14.4
• N#Cc1cc2cnc(NC3CCN(S(=O)(=O)c4ccc(F)cc4)CC3)nc2n(C2CCCC2)c1=O = 539

Now take the following molecule into account.
Given the molecule Cn1cc(-c2cc(Oc3ccc4nc(N[C@H]5CCCC[C@@H]5O)sc4c3)ccn2)cn1 and test system Macrophage colony-stimulating factor 1 receptor (Homo sapiens, UniProt P07333), the measured IC50 is 1

---

Collected from the literature: pIC50 of various compounds toward UniProtKB P07333.
pIC50: −log10 of the molar value.

Here are 7 compounds together with their reported answers.
• Cc1nc(NC(=O)N2CCC3(CCCC3)C2=O)ccc1Oc1ccnc(-c2cnn(C)c2)c1 = 8.07
• CS(=O)(=O)Nc1cccc(Nc2c[nH]c3ncccc23)c1 = ≥ 5.00
• COc1cc2nccc(Oc3cnc(NC(=O)c4cn(CC5CCOCC5)cc(-c5ccc(C)cc5)c4=O)nc3)c2cc1OC = > 6.70
• Clc1cccc(Nc2c[nH]c3ncccc23)c1 = ≥ 5.00
• Cc1cncc(Nc2ccc(Cc3c[nH]c4ncnc(C5CC5)c34)c(F)n2)c1 = > 7.00
• COCCOc1cnc2[nH]cc(Cc3ccc(-c4cnc(NC(C)C)[nH]c4=O)nc3C)c2c1 = 7.41
• COc1nc(NCc2ccc(C(F)(F)F)cc2)ccc1Cc1c[nH]c2ncccc12 = ≥ 5.00

Next up:
Log: UniProtKB P07333, compound C[C@H]1CC[C@H](n2c(=O)c(C#N)cc3cnc(Nc4ccc5c(c4)C(=O)NCC5)nc32)CC1 , pIC50 = 8.10

---

Endpoint summary: IC50, system: Macrophage colony-stimulating factor 1 receptor (Homo sapiens), multiple sources combined.

Use these answered entries as a reference point.
• Cc1n[nH]c2ncc(-c3ccc(CC(=O)Nc4cncc(C(F)(F)F)c4)cc3F)cc12 = 0.0001 to 10 µM
• CCc1ccc(Nc2ccc(Cc3c[nH]c4ncnc(OC)c34)c(F)n2)cn1 = < 0.01 µM
• CCCS(=O)(=O)Nc1ccc(F)c(C(=O)c2c[nH]c3ncc(-c4cccc(C(=O)O)c4)cc23)c1F = ≤ 10 µM
• Cn1cc(-c2cnc3[nH]cc(C(=O)c4c(F)ccc(NS(=O)(=O)c5cccc(OC(F)F)c5)c4F)c3c2)cn1 = ≤ 10 µM

// IC50 value for CCCS(=O)(=O)Nc1ccc(F)c(C(=O)c2c[nH]c3ncc(-c4cccc(NS(C)(=O)=O)c4)cc23)c1F : ≤ 10 µM

// IC50 lookup, compound = Fc1cc(Cl)cc(CNc2ccc(Cc3c[nH]c4ncncc34)c(F)n2)c1 , result: ≤ 10 µM

Please fill in: IC50 reported for Cc1cccc(C(=O)Nc2cccc([C@@H](C)Oc3cc(-c4cccnc4)cnc3N)c2)c1 = ≤ 0.05 µM

Value of IC50 reported for the compound O=C(c1cc(O)ccc1F)c1c[nH]c2ncccc12 is ≤ 10 µM

---

// molecules with IC50 on Macrophage colony-stimulating factor 1 receptor (Homo sapiens, UniProt P07333), multi-source literature

• COc1ccc(Nc2ccc(Cc3c[nH]c4ncnc(OC)c34)c(F)n2)cn1 = < 10 nM
• CCCS(=O)(=O)Nc1ccc(F)c(C(=O)c2c[nH]c3ncc(C(=O)NC4CC4)cc23)c1F = ≤ 10000 nM
• COc1cc2nccc(Oc3cnc(NC(=O)c4nn(C5CC5)cc(-c5ccc(F)cc5)c4=O)nc3)c2cc1OC = 37 nM

Bench note, Macrophage colony-stimulating factor 1 receptor (Homo sapiens, UniProt P07333): Cn1cc(-c2cnc3[nH]cc(C(=O)c4cccc(NS(=O)(=O)c5ccc(C(F)(F)F)cc5)c4)c3c2)cn1 , IC50 reads ≤ 10000 nM
